Molecular target: furin, P09958;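 note: purified furin at 1:10 enzyme:substrate in 50 mM HEPES pH 7.5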
Sequence (P09958 whole entry): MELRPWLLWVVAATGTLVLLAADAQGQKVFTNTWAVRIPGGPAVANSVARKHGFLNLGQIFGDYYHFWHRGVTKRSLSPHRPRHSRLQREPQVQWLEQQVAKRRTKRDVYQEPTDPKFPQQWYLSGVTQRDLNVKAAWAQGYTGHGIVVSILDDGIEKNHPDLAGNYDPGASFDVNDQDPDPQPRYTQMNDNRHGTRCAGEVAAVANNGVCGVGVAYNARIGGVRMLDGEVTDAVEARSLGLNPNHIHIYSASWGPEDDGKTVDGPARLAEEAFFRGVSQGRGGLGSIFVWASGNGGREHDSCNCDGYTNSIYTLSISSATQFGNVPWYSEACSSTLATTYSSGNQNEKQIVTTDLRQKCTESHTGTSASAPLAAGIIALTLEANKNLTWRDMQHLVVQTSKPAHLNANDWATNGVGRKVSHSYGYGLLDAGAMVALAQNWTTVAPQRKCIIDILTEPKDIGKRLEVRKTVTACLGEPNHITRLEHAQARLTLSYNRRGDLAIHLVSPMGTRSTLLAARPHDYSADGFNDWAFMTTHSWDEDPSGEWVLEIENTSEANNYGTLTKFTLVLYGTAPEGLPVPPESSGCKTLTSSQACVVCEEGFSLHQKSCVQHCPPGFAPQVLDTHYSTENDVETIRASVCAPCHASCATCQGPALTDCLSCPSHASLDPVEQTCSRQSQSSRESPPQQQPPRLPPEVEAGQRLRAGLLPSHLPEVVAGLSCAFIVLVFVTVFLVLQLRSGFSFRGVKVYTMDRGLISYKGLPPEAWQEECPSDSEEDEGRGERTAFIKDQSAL
Assay: furin cleavage Z-score vs untreated control; higher = more cleavage, active = 3.5 or more, inactive = 1 or less, 8 variable residues between constant flanks
Settings: 30 min
The list shows a part of the results. The hit rate among all sequences tested is not known here.
Listed sequences paired with reported furin cleavage Z-score
Field format: numeric only.

Here's what some known entries look like.
# input Can you look up the measured furin cleavage Z-score of CAVAYYRGLDAGNASASA [HC868] for me?
# output -1.15

# input Can you look up the measured furin cleavage Z-score of CAEGCGWAGWAGNASASA [HC205] for me?
# output -1.04

# input Can you look up the measured furin cleavage Z-score of CAGGSRWRRSAGNASASA [FS-124] for me?
# output 5.21

# input Can you look up the measured furin cleavage Z-score of CAVRLRAYMNAGNASASA [HC929] for me?
# output 1.3

# input Can you look up the measured furin cleavage Z-score of CAGENLYFQSAGNASASA [TV1] for me?
# output -0.511

***
# input Can you look up the measured furin cleavage Z-score of CAEVKCHRPSAGNASASA [HC2354] for me?
# output 1.45

# input Can you look up the measured furin cleavage Z-score of CAEHPCHRPSAGNASASA [HC2335] for me?
# output -0.909
